Read-out record for MASP-2 (Homo sapiens (Human)): Ki

Sample answers from the record:
| Smiles record | Ki |
| --- | --- |
| O=c1oc(-c2ccco2)nc2cc(Cl)ccc12 | < 10 µM |
| Cc1c(/N=C/c2ccc(OC(=O)c3ccccn3)cc2)c(=O)n(-c2ccccc2)n1C | < 10 µM |

Problem: Consider the compound CC(=O)c1ccc(OC(=O)c2ccco2)cc1 and give its recorded Ki.
Solution: < 10 µM

---

Kindly supply the reported Ki values for the records listed here.
# Target or test system: MASP-2 (CCP1-CCP2-SP) (Homo sapiens (Human), UniProt O00187)
# Sequence (O00187 445-686): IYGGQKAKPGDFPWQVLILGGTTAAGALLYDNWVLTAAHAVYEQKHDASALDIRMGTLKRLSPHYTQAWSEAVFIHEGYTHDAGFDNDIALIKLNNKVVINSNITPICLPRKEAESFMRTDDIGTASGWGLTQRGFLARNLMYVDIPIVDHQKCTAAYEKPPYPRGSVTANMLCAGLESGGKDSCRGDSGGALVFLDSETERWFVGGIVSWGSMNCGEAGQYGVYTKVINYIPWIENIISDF
# Protocol description: biochemical
# Format: biochemical
Structures can show the parent of a compound that is named as a salt.

| Molecule | Readout | Observed |
| --- | --- | --- |
| Cc1cc(Br)cc(CNC(=O)[C@H](C)NC(=O)[C@H]2C[C@H](Cc3ccccc3)CN2)c1-n1cnnn1 [compound 1436, Trifluoroacetate] | Ki | 500 to 2500 nM |
| N=C(N)c1ccc2[nH]c(Cc3nc4ccccc4[nH]3)nc2c1 [compound 2015, Dihydrochloride] | Ki | > 25000 nM |
| COc1cc(CNC(=O)[C@H](C)NC(=O)[C@H](N)CCc2ccccc2)cnc1N | Ki | 500 to 2500 nM |
| Cc1nc(N)ccc1CNC(=O)[C@@H](C)NC(=O)[C@H]1C[C@H](Cc2cccc(C(F)(F)F)c2)C(=O)N1 [compound 1321, Di-trifluoroacetate salt] | Ki | 10000 to 25000 nM |
| C[C@H](NC(=O)c1nc(-c2ccccc2)cs1)C(=O)NCc1ccc(C(=N)N)cc1 | Ki | 2500 to 10000 nM |

For every item in the list below, what is its measured Ki?
1. CCc1ccc(-c2nc3cc(C(=N)N)ccc3[nH]2)nc1 [compound 2007, dihydrochloride]
2. C[C@H](NC(=O)[C@H](N)CCc1ccccc1)C(=O)NCc1cc(Cl)ccc1-n1cncn1
3. C[C@H](NC(=O)[C@H]1C[C@H](c2ccccc2)CN1)C(=O)NCc1ccc2[nH]cc(Cl)c2c1
4. Cc1nc(N)ccc1CNC(=O)[C@H](C)NC(=O)[C@H]1C[C@H](Cc2ccc(C(C)(C)C)cc2)CN1 [compound 1380, Dihydrochloride]

Solution:
["> 25000 nM", "10000 to 25000 nM", "500 to 2500 nM", "500 to 2500 nM"]

---

Kindly supply the reported pKi values for the records listed here.
# Target or test system: human α-thrombin (Homo sapiens (Human))
# Protocol description: Enzymatic assay for thrombin (Boc-VPR-AMC substrate)
# Type: biochemical
# Conditions: read-out: Thrombin Ki
pKi: −log10 of the molar value. Where a name gives a salt, the structure may show the parent alone.

For every item in the list below, what is its measured pKi?
1. Cc1cc(Cl)cc(CNC(=O)[C@H](C)NC(=O)[C@H]2C[C@H](c3ccccc3)CN2)c1 [compound 1333, Hydrochloride]
2. N=C(N)c1ccc(CNC(=O)[C@@H]2CCN2C(=O)[C@H](NCC(N)=O)C2CCCCC2)cc1
3. Cc1nc(N)ccc1CNC(=O)[C@H](C)NC(=O)[C@H]1C[C@H](Cc2ccc(-c3ccc(F)cc3CN)cc2)CN1

Solution:
1. < 4.60
2. > 6.30
3. < 4.60

---

Kindly supply the reported pKi values for the records listed here.
# Target or test system: human α-thrombin (Homo sapiens (Human))
# Protocol description: Enzymatic assay for thrombin (Boc-VPR-AMC substrate)
# Format: biochemical
# Conditions: read-out: Thrombin Ki
pKi: −log10 of the molar value. Where a name gives a salt, the structure may show the parent alone.

| Molecule | Target or test system | pKi |
| --- | --- | --- |
| N=C(N)c1ccc(CNC(=O)[C@@H]2CCN2C(=O)[C@H](N)CCCc2ccccc2)cc1 | human α-thrombin (Homo sapiens (Human)) | > 6.30 |
| Cc1nc(N)ccc1CNC(=O)[C@@H](C)NC(=O)[C@H]1C[C@H](Cc2cccc(C(F)(F)F)c2)C(=O)N1 [compound 1321, Di-trifluoroacetate salt] | human α-thrombin (Homo sapiens (Human)) | < 4.60 |
| N=C(N)c1ccc(CNC(=O)[C@@H]2CCN2C(=O)[C@H]2CCCN2)cc1 | human α-thrombin (Homo sapiens (Human)) | > 6.30 |
| Cc1cc(C)cc(CC[C@@H](N)C(=O)N[C@@H](C)C(=O)NCc2ccc(C(=N)N)cc2)c1 | human α-thrombin (Homo sapiens (Human)) | > 6.30 |
| CC(C)N(CC(=O)NCc1ccc(C(=N)N)cc1)C(=O)[C@H](NCC(=O)O)C1CCCCC1 | human α-thrombin (Homo sapiens (Human)) | > 6.30 |
| C[C@H](NC(=O)[C@H]1C[C@H](c2ccccc2)CN1)C(=O)NCc1cc(Cl)ccc1NS(C)(=O)=O | human α-thrombin (Homo sapiens (Human)) | < 4.60 |
| COC(=O)NC(=N)c1ccc(CNC(=O)[C@H](C)NC(=O)[C@H]2C[C@H](c3ccccc3)CN2)cc1 | human α-thrombin (Homo sapiens (Human)) | < 4.60 |
| Cc1nc(N)ccc1CNC(=O)[C@H](C)NC(=O)[C@H]1C[C@H](Cc2ccc(-c3ccc(F)cc3C(N)=O)cc2)CN1 [compound 1397, Di-trifluoroacetate salt] | human α-thrombin (Homo sapiens (Human)) | < 4.60 |

Now look at this entry.
Problem: Consider the molecule C[C@H](NC(=O)[C@H]1C[C@H](c2ccccc2)CN1)C(=O)NCc1cnc2sccc2c1 [compound 1471, Trifluoroacetate salt] and give its recorded pKi.
Solution: < 4.60

---

# Target or test system: mMASP-2 (Mus musculus (Mouse))
# Sequence (Q91WP0 20-685): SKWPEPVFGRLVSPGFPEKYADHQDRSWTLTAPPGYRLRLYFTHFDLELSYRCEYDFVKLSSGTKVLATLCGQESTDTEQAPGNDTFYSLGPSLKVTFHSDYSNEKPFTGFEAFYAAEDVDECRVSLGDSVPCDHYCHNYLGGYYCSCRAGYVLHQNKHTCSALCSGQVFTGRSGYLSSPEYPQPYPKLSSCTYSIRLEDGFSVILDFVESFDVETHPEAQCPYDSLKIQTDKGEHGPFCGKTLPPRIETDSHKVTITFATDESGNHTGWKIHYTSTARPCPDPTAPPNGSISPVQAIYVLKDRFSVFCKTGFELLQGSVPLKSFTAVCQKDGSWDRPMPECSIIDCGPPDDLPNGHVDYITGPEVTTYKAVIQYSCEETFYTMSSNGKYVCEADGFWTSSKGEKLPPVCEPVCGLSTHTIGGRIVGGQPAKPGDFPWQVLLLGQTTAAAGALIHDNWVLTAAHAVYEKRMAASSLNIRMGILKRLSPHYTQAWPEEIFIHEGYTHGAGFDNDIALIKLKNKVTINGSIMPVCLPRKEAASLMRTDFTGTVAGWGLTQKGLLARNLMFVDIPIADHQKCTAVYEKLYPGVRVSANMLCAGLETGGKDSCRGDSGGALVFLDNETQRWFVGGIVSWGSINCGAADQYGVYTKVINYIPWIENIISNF
# Protocol description: Enzymatic inhibition of mMASP-2
# Format: biochemical
# Conditions: read-out: mMASP-2 Ki
Counter-ions that a name gives are not always drawn.
Readout: Ki

| Molecule | Target or test system | Observed |
| --- | --- | --- |
| Cc1cccc([C@H]2CCN[C@@H](C(=O)N[C@@H](C)C(=O)NCc3ccc(C(=N)N)cc3)C2)c1 | mMASP-2 (Mus musculus (Mouse)) | < 500 nM |
| C[C@@H](NC(=O)[C@H](N)CCc1ccccc1)C(=O)NCc1ccc2nc(N)[nH]c2c1 | mMASP-2 (Mus musculus (Mouse)) | < 25000 nM |
| N=C(N)c1ccc(CNC(=O)[C@H](Cc2ccc(O)cc2)NC(=O)[C@H](N)CCc2ccccc2)cc1 [compound 1326, Di-trifluoroacetate salt] | mMASP-2 (Mus musculus (Mouse)) | < 500 nM |

For every item in the list below, what is its measured Ki?
1. Cc1cnc(NCCc2ccccc2)c(=O)n1CC(=O)NCc1ccc2c(N)nccc2c1
2. Cc1nc(N)ccc1CNC(=O)[C@H](C)NC(=O)[C@H]1C[C@@H](Cc2ccccc2)CN1
3. N=C(N)c1ccc(CNC(=O)[C@@H]2CCN2C(=O)[C@H](NCC(=O)O)C2CCCCC2)cc1 [compound 999, melagatran, reference compound]
4. CN[C@H](CCc1ccccc1)C(=O)N[C@@H](C)C(=O)NCc1ccc(C(=N)N)cc1
5. Cc1nc(N)ccc1CNC(=O)[C@H](C)NC(=O)[C@H]1C[C@H](Cc2cc(Br)no2)CN1 [compound 1421, Di-trifluoroacetate salt]

Solution:
1. < 500 nM
2. 500 to 2500 nM
3. < 500 nM
4. < 500 nM
5. 500 to 2500 nM

---

Kindly supply the reported pKi values for the records listed here.
# Target or test system: human α-thrombin (Homo sapiens (Human))
# Protocol description: Enzymatic assay for thrombin (Boc-VPR-AMC substrate)
# Type: biochemical
# Conditions: read-out: Thrombin Ki
pKi: −log10 of the molar value. Structures can show the parent of a compound that is named as a salt.

Sample answers from the record:
| Molecule | Target or test system | pKi |
| --- | --- | --- |
| C[C@H](NC(=O)[C@H]1C[C@H](c2ccccc2)CN1)C(=O)NCc1cc2cnccc2[nH]1 [compound 1463, Di-trifluoroacetate salt] | human α-thrombin (Homo sapiens (Human)) | < 4.60 |
| N=C(N)c1ccc(CNC(=O)[C@@H]2CCN2C(=O)[C@H]2CC3CCCCC3N2)cc1 (stereo partly drawn) | human α-thrombin (Homo sapiens (Human)) | > 6.30 |

For every item in the list below, what is its measured pKi?
1. C[C@H](NC(=O)[C@H]1C[C@H](c2ccccc2)CN1)C(=O)NCc1ccc(N)nc1
2. C[C@H](NC(=O)[C@@H](CCc1ccccc1)NCc1ccc(N2CCN(C)CC2)cc1)C(=O)NCc1ccc(C(=N)N)cc1
3. Cc1nc(N)ccc1CNC(=O)[C@H](C)NC(=O)c1cc(Cc2ccccc2)c[nH]1
4. C[C@H](NC(=O)[C@H]1C[C@H](c2ccccc2)CN1)C(=O)NCc1cc(N)n[nH]1 [compound 1336, Dihydrochloride]
5. COc1ccc(CC[C@@H](N)C(=O)N[C@@H](C)C(=O)NCc2ccc(C(=N)N)cc2)cc1
6. C[C@H](NC(=O)[C@H]1C[C@H](Cc2cccc3ccccc23)CN1)C(=O)NCc1cnc2[nH]cc(Cl)c2c1 [compound 1415, Hydrochloride]
7. C[C@@H](NC(=O)[C@H](N)CCc1ccccc1)C(=O)NCc1ccc2nc(N)[nH]c2c1

Solution:
["< 4.60", "> 6.30", "< 4.60", "< 4.60", "> 6.30", "> 6.30", "< 4.60"]

For every item in the list below, what is its measured pKi?
1. C[C@H](NC(=O)[C@H](N)CCc1ccccc1F)C(=O)NCc1ccc(C(=N)N)cc1
2. Cc1cnc(NCCc2ccccc2)c(=O)n1CC(=O)NCc1ccc2c(N)nccc2c1
3. C[C@H](NC(=O)[C@@H](CCc1ccccc1)NC1CCCC1)C(=O)NCc1ccc(C(=N)N)cc1

Solution:
1. > 6.30
2. > 6.30
3. > 6.30

Origin of the recorded values: patent US11584714B2
